# test details: chemical genetic growth profiling, strain panel (AID 1159580);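 further: tested at 20 µM; growth read once vehicle control cultures reached saturation at 30 °C; 1 = growth at the plate median or of vehicle wells; lower values mean less growth of the strain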
# recorded conditions: S. cerevisiae deletion strains, growth OD, locus YER111C, strain swi4, hits give low values
In all, about 5,500 compounds went through this assay and about 2,000 (36%) were called active. Another 18% or so got no clear call; they are omitted. This is one part of the list.

compound	normalized growth
C[C@@H]1O[C@@H](O[C@H]2[C@@H](Oc3cc(O)c4c(c3)O[C@H](c3ccc(O)cc3)CC4=O)O[C@H](CO)[C@@H](O)[C@@H]2O)[C@H](O)[C@H](O)[C@H]1O	0.983
C=CC1=C(C(=O)O)N2C(=O)[C@@H](NC(=O)/C(=N/O)c3csc(N)n3)[C@H]2SC1	1.01
COc1ccc([C@@H]2CC(=O)c3c(O)cc(O)cc3O2)cc1O	0.963
O=C(O)c1ccccc1OP(=O)(O)O	1.01
CC(=O)O[C@H]1C(=O)[C@@]2(C)C([C@H](OC(=O)c3ccccc3)[C@]3(O)C[C@H](O)C(C)=C1C3(C)C)[C@]1(OC(C)=O)CO[C@@H]1C[C@@H]2O (some centres undefined)	1
CCOC(=O)c1ncn2c1CN(C)C(=O)c1cc(F)ccc1-2	1.01
CNC1(C)C2CCC(C2)C1(C)C (centres undefined)	1
CC(C)(C)CC(C)(C)c1ccc(OCCOCC[N+](C)(C)Cc2ccccc2)cc1	0.0727
CCSC(=N)N	1.02

---

Each item that follows carries a reported normalized growth.
# test details: chemical genetic growth profiling, strain panel (AID 1159580)
# recorded conditions: S. cerevisiae deletion strains, growth OD, locus YAR019C, strain CDC15, hits give low values
The campaign covered roughly 5,500 compounds. About 2,000 (36%) were called active. Roughly 18% stayed inconclusive and do not appear here. Some of the results follow.
measure name: normalized growth

                                    molecule  result
 0            N#Cc1c(Cl)c(Cl)c(Cl)c(Cl)c1C#N   0.625
 1  O=C(NCc1ccco1)c1ccc(Oc2cc(Cl)cc(Cl)c2)o1   0.961
 2  O=C(Oc1cc(Cl)c(Cl)cc1Cl)C1c2ccccc2Oc2ccccc21   0.953
 3  Cn1c([N+](=O)[O-])cnc1/C=C(\C#N)C(=O)Nc1ccc(F)cc1   0.267
 4  O=C(Nc1c(Br)c(C2CC2)nn1-c1ccccc1)C(Cl)(Cl)Cl    0.92
 5  Cc1c(Cl)cccc1NC(=S)N1CCCN(c2nc3ccc(Cl)cc3s2)CC1   0.977
 6  CCC(C)c1ccccc1NC(=O)c1cc2cccc([N+](=O)[O-])c2[nH]1 (configuration not stated)   0.932
 7  Cc1c(C(=O)N2CCCCC2)cc(-c2ccccc2)n1-c1ccccc1   0.964
 8  Cc1oc2c(F)c(F)c(F)c(F)c2c1C(=O)ONC(N)c1ccc(OS(=O)(=O)N(C)C)cc1 (configuration not stated)   0.958
 9     S=C(Nc1cc(-c2cccs2)[nH]n1)Nc1ccccc1Cl    0.93
10  CC1=CC(=O)C(CCOCCC2=CC(=O)C(C)=CC2=O)=CC1=O   0.981
11     O=C(C=C(O)c1ccc(Br)cc1)C(=O)Nc1ccccc1   0.489
12  NCCCN=c1ccc2c3c1c(O)c1c(O)ccc(=O)c1c3[nH]n2CCNCCO   0.984
13  COc1ccc(NC(=O)O/N=C(/N)c2ccc(Oc3c(Cl)cncc3Cl)cc2)cc1   0.966
14  Cc1ccccc1C(=O)N1CCc2c([nH]c3ccccc23)C1C(F)(F)F (configuration not stated)   0.982
15  Cn1cncc1S(=O)(=O)/C(C#N)=C/c1ccccc1Sc1ccc(Cl)cc1   0.987
16  N#C/C(=C\c1ccccc1Sc1ccc(Cl)cc1)S(=O)(=O)c1ccccn1   0.972

---

# test details: chemical genetic growth profiling, strain panel (AID 1159580)
# recorded conditions: S. cerevisiae deletion strains, growth OD, locus YNL224C, strain SQS1, hits give low values
Out of some 5,500 compounds screened, about 2,000 (36%) were called active. Another 18% or so got no clear call; they are omitted. This is one part of the list.
Sorting guide: entries reporting normalized growth beneath 1 go in the Criterion met pile, the rest go in the Criterion not met pile.

In [3]: df
Out[3]:
                                   compound         class_name
0    N#C/C(=C\c1ccc(O)c(O)c1)C(=O)Nc1ccccc1  Criterion not met
1  CCCc1c(OCCCOc2ccc(OCC(=O)O)cc2)ccc(C(C)=O)c1O      Criterion met
2  Ic1ccccc1CNC1C2CCN(CC2)C1C(c1ccccc1)c1ccccc1 (configuration not stated)  Criterion not met

---

# test details: chemical genetic growth profiling, strain panel (AID 1159580);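 further: tested at 20 µM; growth read once vehicle control cultures reached saturation at 30 °C; 1 = growth at the plate median or of vehicle wells; lower values mean less growth of the strain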
# recorded conditions: S. cerevisiae deletion strains, growth OD, locus YPL078C, strain atp4
The campaign covered roughly 5,500 compounds. About 2,000 (36%) were called active. Inconclusive results (about 18%) are left out. Cut-off read from the data, not from the text of the source: active = normalized growth mostly below about 0.91 (no sharp cut-off); inconclusive = no clear call, values can overlap the other calls; inactive = mostly above about 0.92. This is one part of the list.
Classes used: active, inactive

>>> df
                                    compound  class_name
 0   CCC(C(=O)O)c1ccccc1 (centres undefined)    inactive
 1  CCCCCCCCCCCCCCCCOP(=O)([O-])OCC[N+](C)(C)C      active
 2       Cc1cccc(Nc2cc(Cl)nc(SCC(=O)O)n2)c1C    inactive
 3  CNc1ccccc1C(=O)N1CCc2c([nH]c3ccccc23)C1=O    inactive
 4  CC(=O)O[C@@](C)(CCC=C(C)C)C1CC=C(C)CC1 (some centres undefined)    inactive
 5  COC(=O)[C@@H]1C(O)CC[C@H]2CN3CCc4c([nH]c5ccccc45)[C@@H]3C[C@@H]21 (some centres undefined)    inactive
 6           NC(=O)N1c2ccccc2CC(=O)c2ccccc21    inactive
 7  COc1ccc2c(c1)OC[C@@H](Cc1ccc(OC)c(OC)c1)[C@H]2O    inactive
 8  COC(=O)C1[C@H]2C[C@H]3c4[nH]c5ccccc5c4CCN3C[C@@H]2CC[C@@H]1O (some centres undefined)    inactive
 9  COc1cc(OC)c2c(c1)O[C@H](c1ccc(OC)c(OC)c1)[C@@H](O)C2    inactive
10              CC[C@@H](CO)NCCN[C@@H](CC)CO    inactive
11  C[N+](C)(C)CCOP(=O)([O-])OP(=O)(O)OC[C@H]1OC(n2ccc(N)nc2=O)[C@H](O)[C@@H]1O (some centres undefined)    inactive
12                CN=C(NC#N)NCCSCc1nc[nH]c1C    inactive
13  CC(C)[N+](C)(CCOC(=O)C1c2ccccc2Oc2ccccc21)C(C)C    inactive

---

# test details: chemical genetic growth profiling, strain panel (AID 1159580);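 further: tested at 20 µM; growth read once vehicle control cultures reached saturation at 30 °C; 1 = growth at the plate median or of vehicle wells; lower values mean less growth of the strain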
# recorded conditions: S. cerevisiae deletion strains, growth OD, locus YFR019W, strain FAB1
The campaign covered roughly 5,500 compounds. About 2,000 (36%) were called active. About 18% were inconclusive and are not listed. Rule as the data show it: active = normalized growth mostly below about 0.91 (no sharp cut-off); inconclusive = no clear call, values can overlap the other calls; inactive = mostly above about 0.92. The list shows a part of the results.
Labels: Yes = active, No = inactive

>>> print(df.to_string())
                                   compound  class_name
0  Cn1c([N+](=O)[O-])cnc1/C=C(\C#N)C(=O)Nc1ccc(F)cc1         Yes
1            N#Cc1c(Cl)c(Cl)c(Cl)c(Cl)c1C#N         Yes
2  Cc1oc2c(F)c(F)c(F)c(F)c2c1C(=O)ONC(N)c1ccc(OS(=O)(=O)N(C)C)cc1 (stereo unspecified)          No
3  NCCCN=c1ccc2c3c1c(O)c1c(O)ccc(=O)c1c3[nH]n2CCNCCO          No
4  O=[N+]([O-])c1cc(C(F)(F)F)ccc1-n1ccc(-c2cccs2)n1          No
5  O=C(Oc1cc(Cl)c(Cl)cc1Cl)C1c2ccccc2Oc2ccccc21          No

---

Overview of recorded normalized growth for various compounds
# test details: chemical genetic growth profiling, strain panel (AID 1159580);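 further: tested at 20 µM; growth read once vehicle control cultures reached saturation at 30 °C; 1 = growth at the plate median or of vehicle wells; lower values mean less growth of the strain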
# recorded conditions: S. cerevisiae deletion strains, growth OD, locus YNL197C, strain WHI3, hits give low values
About 2,000 (36%) of roughly 5,500 compounds were called active. Another 18% or so got no clear call; they are omitted. The list shows a part of the results.
measure name: normalized growth

>>> df
                                   compound            result
0  NC(=O)COc1c(F)cc(SCCNS(=O)(=O)c2ccccc2)cc1F  0.975 (inactive)
1  CCCc1c(OCCCOc2ccc(OCC(=O)O)cc2)ccc(C(C)=O)c1O  0.987 (inactive)
2       CN(C)CC[C@@H](c1ccc(Cl)cc1)c1ccccn1      1 (inactive)
3  CNC1(C)C2CCC(C2)C1(C)C (stereo not drawn)   1.02 (inactive)
4  Cn1cc(C2=C(c3ccc(Cl)cc3Cl)C(=O)NC2=O)c2ccccc21      1 (inactive)
5  COc1cc(C(O)C(=O)O)ccc1O (stereo not drawn)   1.01 (inactive)
6                    Cc1cccc(C#Cc2ccccc2)n1      1 (inactive)
7  O[Si](CCCN1CCCCC1)(c1ccc(F)cc1)C1CCCCC1 (stereo not drawn)   1.01 (inactive)

meta.source: PubChem BioAssay AID1159580
